- ASSAY_SYSTEM: Bcl-2 (Homo sapiens, UniProt P10415)
- Sequence (P10415 whole entry, species assumed, the tested form may be a part): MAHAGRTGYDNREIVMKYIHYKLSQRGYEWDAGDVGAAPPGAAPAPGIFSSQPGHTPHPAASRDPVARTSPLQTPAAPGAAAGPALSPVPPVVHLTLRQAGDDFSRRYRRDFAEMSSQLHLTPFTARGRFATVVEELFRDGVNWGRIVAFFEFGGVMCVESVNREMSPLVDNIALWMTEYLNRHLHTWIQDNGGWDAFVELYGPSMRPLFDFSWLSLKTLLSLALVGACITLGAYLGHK
- EXPERIMENT_SUMMARY: Homogeneous HTS assay for inhibitors of the Bcl-2 : Bak (72-87) BH3 domain interaction, fluorescence polarisation (2D-FIDA)
- Assay type: binding
- STATED_CONDITIONS: fluorescence polarisation, fluorescent labelled Bak BH3 domain derived peptide; read-out: IC50 [μM] Bcl-2
Some compounds, each annotated with its measured IC50.

Some solved cases for reference:
>>> assay_result("CC1(C)CCC(c2ccc(Cl)cc2)=C(CN2CCN(c3ccc(Cn4c(=N)n(CCCOc5ccc(F)cc5)c5ccc(F)cc54)cc3)CC2)C1 [Compound 64]")
"< 10 µM"
>>> assay_result("N=c1n(CCCOc2ccc(F)cc2)c2ccccc2n1Cc1ccc(N2CCN(Cc3ccccc3-c3ccc(Cl)cc3)CC2)cc1 [Compound 24]")
"< 10 µM"
>>> assay_result("CC1(C)CCC(c2ccc(Cl)cc2)=C(CN2CCN(c3cccc(Cn4c(=N)n(CCCOc5ccc(F)cc5)c5ccccc54)c3)CC2)C1 [Compound 31]")
"< 10 µM"
>>> assay_result("N=c1n(CCCOc2ccc(F)cc2)c2ccc(F)cc2n1Cc1ccc(Br)cc1 [Compound 59]")
"11 to 100 µM"
>>> assay_result("N=c1n(CCCOc2ccc(F)cc2)c2ccccc2n1Cc1ccc(Cl)c(Cl)c1 [Compound 11]")
"11 to 100 µM"
>>> assay_result("N=c1n(Cc2ccccc2)c2ccccc2n1Cc1ccc(N2CCN(Cc3ccccc3-c3ccccc3)CC2)cc1 [Compound 18]")
"< 10 µM"

--- query ---
q: Can you share its IC50? I mean this compound: Cc1ccc(Cn2c(=N)n(CC(O)COc3ccccc3)c3ccccc32)cc1 (stereo not shown) [Compound 100]
a: 11 to 100 µM

* * *

- ASSAY_SYSTEM: Bcl-2 (Homo sapiens)
- EXPERIMENT_SUMMARY: Homogeneous HTS assay for inhibitors of the Bcl-2 : Bak (72-87) BH3 domain interaction, fluorescence polarisation (2D-FIDA)
- Format: binding
- STATED_CONDITIONS: fluorescence polarisation, fluorescent labelled Bak BH3 domain derived peptide; read-out: IC50 [μM] Bcl-2
QUANTITY: IC50

>>> assay_result("N=c1n(CCCOc2ccccc2)c2ccccc2n1Cc1ccc(N2CCN(Cc3ccccc3-c3ccccc3)CC2)cc1")
"< 10 µM"

q: Can you share its IC50? I mean this molecule: Cc1ccccc1OCC(O)Cn1c(=N)n(Cc2ccccc2)c2ccccc21 (stereo not shown)
a: 11 to 100 µM

q: Can you share its IC50? I mean this molecule: N=c1n(Cc2cccc(Br)c2)c2ccccc2n1CC(O)COc1ccc(F)cc1 (stereo not shown)
a: 11 to 100 µM

q: Can you share its IC50? I mean this molecule: N=c1n(CCCOc2cccc(C(=O)O)c2)c2ccccc2n1Cc1ccc(N2CCN(Cc3ccccc3-c3ccc(Cl)cc3)CC2)cc1
a: < 10 µM

* * *

- ASSAY_SYSTEM: Bcl-2 (Homo sapiens, UniProt P10415)
- EXPERIMENT_SUMMARY: Homogeneous HTS assay for inhibitors of the Bcl-2 : Bak (72-87) BH3 domain interaction, fluorescence polarisation (2D-FIDA)
- Format: binding
- STATED_CONDITIONS: fluorescence polarisation, fluorescent labelled Bak BH3 domain derived peptide; read-out: IC50 [μM] Bcl-2
QUANTITY: IC50

Some solved cases for reference:
>>> assay_result("COC(=O)c1ccc(OCCCn2c(=N)n(Cc3cccc(Br)c3)c3ccccc32)cc1")
"11 to 100 µM"
>>> assay_result("N=c1n(CCCOc2ccc(F)cc2)c2ccccc2n1Cc1ccccc1N1CCN(Cc2ccccc2-c2ccccc2)CC1")
"< 10 µM"
>>> assay_result("N=c1n(CCCOc2ccc(F)cc2)c2ccccc2n1Cc1ccc(-c2ccc(F)cc2)cc1")
"11 to 100 µM"
>>> assay_result("N=c1n(CCSc2ccccc2)c2ccccc2n1Cc1ccc(N2CCN(Cc3ccccc3-c3ccc(Cl)cc3)CC2)cc1")
"< 10 µM"
>>> assay_result("N=c1n(CCCOc2ccc(Cl)cc2)c2ccccc2n1Cc1ccc(Br)cc1")
"11 to 100 µM"

q: Can you share its IC50? I mean this compound: COc1ccc(OCC(O)Cn2c(=N)n(Cc3ccccc3)c3ccccc32)cc1 (stereo not shown)
a: 11 to 100 µM

q: Can you share its IC50? I mean this compound: N=c1n(Cc2ccccc2)c2ccccc2n1Cc1ccncc1
a: > 100 µM

q: Can you share its IC50? I mean this compound: N=c1n(CCCOc2ccc(F)cc2)c2ccccc2n1Cc1ccc(CNCC(=O)Nc2cccc(Cl)c2)cc1
a: 11 to 100 µM

q: Can you share its IC50? I mean this compound: N=c1n(CCCOc2ccc(F)cc2)c2ccccc2n1Cc1ccc(N2CCN(Cc3ccccc3Cl)CC2)cc1
a: < 10 µM

q: Can you share its IC50? I mean this compound: N=c1n(CCCOc2ccc(F)cc2)c2ccccc2n1Cc1ccc(CN2CCN(Cc3cccc(Cl)c3)CC2)cc1
a: < 10 µM

q: Can you share its IC50? I mean this compound: COc1ccccc1OCC(O)Cn1c(=N)n(Cc2ccccc2)c2ccccc21 (stereo not shown)
a: 11 to 100 µM

q: Can you share its IC50? I mean this compound: N=c1n(CCCOc2ccc(F)cc2)c2ccccc2n1Cc1cccc(Cl)c1
a: 11 to 100 µM

q: Can you share its IC50? I mean this compound: N=c1n(Cc2ccccc2)c2ccccc2n1CC(O)COc1ccc([N+](=O)[O-])cc1 (stereo not shown)
a: 11 to 100 µM

q: Can you share its IC50? I mean this compound: N=c1n(CCCOc2ccc(F)cc2)c2ccc(F)cc2n1Cc1ccc(N2CCN(Cc3ccccc3-c3ccccc3)CC2)cc1
a: 11 to 100 µM

q: Can you share its IC50? I mean this compound: N=c1n(CCCOc2ccc([N+](=O)[O-])cc2)c2ccccc2n1Cc1ccc(Br)cc1
a: 11 to 100 µM

q: Can you share its IC50? I mean this compound: CCOC(=O)c1cccc(OCCCn2c(=N)n(Cc3ccc(N4CCN(Cc5ccccc5-c5ccc(Cl)cc5)CC4)cc3)c3ccccc32)c1
a: < 10 µM
